test system: NCI/ADR-RES ovarian; test: NCI tumour cell line growth inhibition, 48 h
Endpoint: TGI

Molecule	TGI
CCOC(=O)C(=CNC(=S)N=Nc1c(O)[nH]c2ccccc12)C(=O)OCC	> 100 µM
CC(C)=CC(=O)N[C@H]1CC[C@]2(C)C3CC[C@]4(C)C(C(C)N(C)C)=CCC4C3CCC2[C@H]1O (some centres undefined)	25.5 µM
CC(C)(C)NC(=O)/C(=C\Sc1ccccc1)c1ccccc1	> 100 µM

Query: Provide TGI value for the following molecule: C=C1SC(=Nc2ccccc2Cl)N(C(=O)c2sc3ccccc3c2Cl)C12CCCCC2
Reply: > 100 µM

----------
test system: EKVX NSCLC; experiment: NCI tumour cell line growth inhibition, 48 h
Endpoint: TGI (µM)
Give just the number in µM; leave the unit off.

Compound	Endpoint	Result number
CC1CC(C)C2OC2(C)C[C@H](C)C(=O)NC(C)C(=O)N(C)[C@H](Cc2c(Br)[nH]c3ccccc23)C(=O)N[C@@H](c2ccc(O)cc2)CC(=O)O1 (stereo not given in full)	TGI	75.8

// next entry
Query: Give me measured TGI, please, for this compound: COC(=O)[C@@H](C)[C@H]1CC[C@@](C)(CCC2=C(C)CC3C=C(C)CCC3C2(C)C)OO1 (stereo not given in full)
Reply: 3.03

----------
system: DU-145 prostate; test: NCI tumour cell line growth inhibition, 48 h
Endpoint: TGI (µM)
Report as a plain number; the unit µM is understood.

Please review the following examples before continuing.
Compound	Display unit	TGI
Nc1nc2cc(CC[C@H]3C[C@@H](n4ccc5c(N)ncnc54)[C@H](O)[C@@H]3O)ccc2cc1Br	µM	27
CN(C)CCCC1(c2ccc(F)cc2)OCc2cc(-c3cc4ccccc4s3)ccc21 (configuration not stated)	µM	3.24
CCCCCCCCCCCCCCCCCCNC(=S)/N=C/c1c(O)c2ccccc2[nH]c1=O	µM	29.7
COC1=CC(c2ccc[nH]2)=N/C1=C\c1[nH]c(C)c(CC(=O)OCc2ccccc2)c1C	µM	10.9
CCCCCC[C@@H](C)NC(=O)c1ccc(Nc2nc3ccccc3c3occc23)cc1	µM	13.2

Query: Provide measured TGI value, entry: COC1=C(Cl)C(=O)c2c(O)ccc(O)c2C1=O
Reply: 6.83

Query: Determine its reported TGI: CC(=O)O[C@H]1C(=O)[C@@]2(C)[C@H]([C@H](OC(=O)c3ccccc3)[C@]3(O)C[C@H](OC(=O)[C@H](O)[C@@H](NC(=O)c4ccccc4)c4cccc(N(C)C)c4)C(C)=C1C3(C)C)[C@]1(OC(C)=O)CO[C@@H]1C[C@@H]2O
Reply: 1.58

----------
test system: EKVX NSCLC; assay: NCI tumour cell line growth inhibition, 48 h; in the data active means GI50 below about 0.43 µM; inactive means the rest
Respond only with the outcome that fits, drawn from active, inactive

Molecule	Assigned category
CC(=O)/C=C/C1=C(c2csc3ccccc23)c2ccccc2CC1	inactive
COC1=CC(c2ccc[nH]2)=N/C1=C\c1[nH]c(C)c(CC(=O)OCc2ccccc2)c1C	active
Cc1c(N)nc(C(CC(N)=O)NCC(N)C(N)=O)nc1C(=O)NC(C(=O)NC(C)C(O)C(C)C(=O)NC(C(=O)NCCc1nc(-c2nc(C(=O)NCCCNC(C)c3ccccc3)cs2)cs1)C(C)O)C(OC1OC(CO)C(O)C(O)C1OC1OC(CO)C(O)C(OC(N)=O)C1O)c1cnc[nH]1 (stereo not drawn)	inactive
C[C@H]1COCCN1c1cc(C2(S(=O)(=O)C3CC3)CC2)nc(-c2ccc(NC(=S)NCCO)cc2)n1	active
O=C(/C=C1\C(=O)N(Cc2ccccc2)c2ccccc21)c1ccc(OCCN2CCCCC2)cc1	inactive

Query: So what was the verdict on Cc1cc(OCCOCCC(F)(F)P(=O)(O)O)ccc1CCc1cnc2c(N)nc3cc(CCC(=O)O)ccc3c2c1 in this test?
Reply: inactive

Query: Kindly provide the recorded test outcome for the following molecule: N#C/C(=N\Nc1ccccc1)C(=O)Nc1cc(-c2ccccc2)nn1-c1ccccc1
Reply: inactive

Query: Write down the call the test reported for this molecule. Item: O=CN1N=C(c2cccc(Nc3ccnc4cc(Cl)ccc34)c2)CC1c1ccccc1 (stereo not drawn)
Reply: inactive
